Overview of reported melting point across a group of compounds:

{"columns": ["compound", "result"],
 "data": [
  ["CC1(C)OCC(N2CCC(Cc3ccccc3)CC2)O1 (stereo not given)", "92 to 94 °C"],
  ["Cc1c(S(=O)(=O)N(C)C)c(=O)c2ccc(F)cc2n1C", "244 to 248 °C"],
  ["CCn1cc(C(=O)O)c(=O)cc1-c1cccc(N)c1", "145 to 146 °C"]
]}

# input compound: O=C1c2ccccc2CS(=O)(=O)N1CC(O)CN1CCOCC1 (stereo not given) ; wanted: its melting point
175 to 177 °C

What about COc1ccc2c(c1)CC(C)(CN1CCC(c3ccccc3)CC1)NC2=O (stereo not given) ?
93 to 95 °C

Item: "CCc1c(C)sc(NC(=O)OC(C)(C)C)c1C(=O)O"
196 to 197 °C

###

Measured melting point values are reported for all entries that follow.

{"columns": ["molecule", "result"],
 "data": [
  ["CCCOc1ccccc1-c1nc2nc(NCC)ncc2c(=O)[nH]1", "181 to 182 °C"],
  ["CNC(=O)c1ccc(C)c(-n2c(C)cc(OCc3ccccc3CNC(=O)Nc3cc(C(C)(C)C)nn3-c3ccc(O)c(Cl)c3)c(Cl)c2=O)c1", "201 to 203 °C"],
  ["CNC(=O)CC1=CSC2=C(C(=O)OC(C)C)C(C)CN12 (centres undefined)", "203 to 205 °C"],
  ["CCOc1ccc(S(=O)(=O)N(CC(=O)NN=C2C(=O)Nc3ccc(I)cc32)c2ccccc2)cc1", "233 to 234 °C"],
  ["Cc1cc(=O)c(C(=O)Nc2ccccc2)c(-c2ccccc2)o1", "222 to 226 °C"],
  ["CCCCN(CCCC)c1ccc(C=CC2=CC(=CC=CC3=C(C#N)C(=C(C#N)C#N)OC3(C)C(F)(F)F)CC(C)(C)C2)c(OC)c1 (centres undefined)", "196 to 201 °C"],
  ["CN1CCC(C(=O)N(C)C)C(c2cccc(F)c2)C1 (centres undefined)", "101 °C"],
  ["Cc1nnc2ccc(-c3cccc(N(C)C(=O)N(C)C)c3)nn12", "159 to 161 °C"]
]}

Please turn your attention to the following entry.
Which melting point reading was recorded for the molecule O=P(O)(O)OC(Cn1cncn1)C(c1ccc(F)cc1F)n1cncn1 (centres undefined) ?
93 °C

###

Parameter melting point: see the listing below.

Observe how each entry below is paired with its result.
{"columns": ["molecule", "melting point"],
 "data": [
  ["CCCCCCCCCCCCCCCCCCOc1ccc(NC(=O)c2ccc(OC(C)=O)cc2)cc1", "154 °C"],
  ["CCn1cc(C(=O)O)c(=O)c2cc(F)c(N3C[C@@H](N)[C@@H](C)C3)c(F)c21 (relative stereo)", "232 to 234 °C"],
  ["O=C(CBr)c1ccc2oc3ccc(C(=O)CBr)cc3c(=O)c2c1", "209 to 210 °C"],
  ["CC(=O)CC(O)c1ccc([N+](=O)[O-])cc1 (stereo not given)", "62 °C"],
  ["CCCCCCCCCCCCCCOC(=O)c1cc(C(=O)OCCCCCCCCCCCCCC)cc([N+](=O)[O-])c1", "60 to 61 °C"]
]}

Sample "C=CCOc1ccc(C(=O)C=Cc2ccc(OC)cc2OC)cc1" — what was its melting point?
74.5 to 75 °C

Similarly, Cc1n[nH]c2c1C(=O)CC(c1ccccc1Cl)C2 (stereo not given) ?
168 to 170 °C

Next molecule: "Nc1nc2c(ncn2/C=C2/CC2(CO)CO)c(=O)[nH]1"
> 300 °C

// next record O=C(CCCC=CCC1C(O)CC(O)C1C=CC(O)CCc1ccccc1)ON1C(=O)c2ccccc2C1=O (stereo not given)
83.2 to 84.5 °C

Next: "CSc1nccc(CC(=O)c2ccc(Cl)cc2Cl)n1"
105 to 107 °C

"COc1c(NC(=O)COc2ccccc2)c(C(N)=O)c(OC)c(NC(=O)COc2ccccc2)c1C(N)=O" , same question.
272 to 274 °C

Another molecule: "Nc1nc2c(s1)CCN(CC=Cc1cccc(F)c1)CC2"
128 to 132 °C

Entry to check: "COc1ccc2c3c(c(=O)oc2c1)CN(Cc1ccc(C(F)(F)F)cc1)CC3"
203 to 206 °C

Try this molecule too: "COc1ccc2[nH]c3c(c2c1)CC(=O)Nc1cccnc1-3"
> 330 °C

What do you get for "O=c1[nH]c2ccc(CCN3CCN(c4cccc5c4CCCC5)CC3)cc2o1" ?
200 °C

One more molecule: CCC1C(C)=NN=C(c2ccc(OC)c(OC)c2)c2cc(OC)c(OCCCN(C)C)cc21 (stereo not given)
126 to 128 °C

Further, for "O=C(Cc1ncccn1)c1ccc(F)cc1F" ?
86 to 88 °C

# repeat for O=C1N(Cc2ccc(OCCO)cc2)c2ccccc2C12COc1cc3c(cc12)OCCO3 (stereo not given)
196 to 197 °C

Consider next the molecule "CC(C)(F)CC(=O)c1cc(C(C)(C)C)c(O)c(C(C)(C)C)c1" in the same way.
94 °C

How about "Cc1cc2c(cc1Br)C(C)(C)CCC2(C)C" ?
73 °C

###

observable: melting point

Worked examples, 5 compounds total:
{"columns": ["compound", "melting point"],
 "data": [
  ["CC(=O)c1ccc(S(=O)(=O)N2CCN(C)CC2)cc1", "118 to 119 °C"],
  ["C#CCN(C(C)=O)c1cccc(-c2ccc3nnc(C)n3n2)c1", "195 to 198 °C"],
  ["COC(=O)c1cc(Br)c(O)c(O)c1Cl", "103 °C"],
  ["Cc1sc(-c2cccnc2)nc1O", "201 to 202 °C"],
  ["FC1=Cc2ccccc2Nc2ccccc21", "69 to 72 °C"]
]}

Quick one: melting point of CC1(O)c2ccccc2C2=NCCCN21 (stereo unspecified) ?
199 to 201 °C

Now the same for "CCOC(=O)c1cn(C)c2cc(-n3cccc3)c(F)cc2c1=O"
253 to 254 °C

Quick one: COc1nc2ccccc2c2c1ncn2CC(O)CO (stereo unspecified)
214 to 216 °C

Also check "CCNC(=O)NC1=C(C(=O)OC)CCNC1=O"
103 °C

Same question for "CON(c1ccc([N+](=O)[O-])cc1Cl)S(=O)(=O)c1ccc(Cl)c([N+](=O)[O-])c1" please.
138 to 139 °C

And what about the compound "CN(C)Cc1cccc(-c2cc(-c3ccccc3O)nc(NC(=O)c3cccs3)c2C#N)c1" ?
225 to 226 °C

Next: CC(=O)c1ccc(C2=CC3CCCC3C2=O)cc1 (stereo unspecified)
76 to 77 °C

Similarly, CCCC=CCC(CC(=O)Nc1cc(Cc2n[nH]c(=O)c3ccccc23)ccc1F)C(=O)O (stereo unspecified) ?
179 to 181 °C

Query "COc1ccc2c(Cc3ccco3)nnc(N3CCCC3)c2c1" next
148 to 149 °C

Moving on to "CCC(=O)Nc1c(C(=O)c2ncccc2CO)[nH]c2cc(Cl)ccc12"
198 to 199 °C

Query "CSc1nn2c(N)cc(CN(C)C)nc2c1S(=O)(=O)c1ccccc1" next
216 to 218 °C

Continue with CCC(C)(CC)CC(=O)C(OC(=C1C(=O)N(C(N)=O)c2cc(Cl)c(F)cc21)c1cccs1)C(=O)O (stereo unspecified)
124 to 125 °C

Entry to check: CCOc1cc(C2=NN(C3CCCC3)C(=O)[C@H]3CC=CC[C@@H]23)ccc1OC (relative stereo)
124 to 127 °C

What about this compound? "Cc1cccc2c1C(=O)N1CC[C@H]1c1c(C(=O)OC3CCCCC3)ncn1-2"
199 to 200 °C

Continue with "CS(=O)(=O)Oc1cnc2cc(C(F)(F)F)ccc2c1O"
220 °C

Try this compound too: "COc1cc(F)c(C(=O)Oc2ccc(C(=O)O)cc2)cc1C12CC3CC(CC(C3)C1)C2"
268 to 270 °C

###

Measured melting point values are reported for all entries that follow.

Please review the entries below; each comes with its answer.
{"columns": ["compound", "observable", "result"],
 "data": [
  ["CCC(CC)n1nnc2c([N+](=O)[O-])cccc21", "melting point", "129 to 132 °C"],
  ["COc1cccc(Nc2nc(N)nc3[nH]c4ccccc4c23)c1", "melting point", "225 to 226 °C"],
  ["O=C1CCC2N1CC(=O)N2c1ccccc1 (stereo not given)", "melting point", "185 to 188 °C"]
]}

What does the data say about its melting point? Entry: "CCOC(=O)c1[nH]c2cc(Cl)cc(Cl)c2c1N(CC(=O)c1ccccc1)Cc1ccccc1"
174 to 175 °C

Ok, now "CNC(=O)c1cc(F)c(Cl)cc1Oc1cccc(OC)c1C"
127 to 128 °C

What do you get for "CCOC(=O)C1(NS(=O)(=O)c2ccc3c(Cl)cnc(Cl)c3c2)CCC1" ?
123 to 125 °C

Lookup "O=C1Cn2c(c(Cl)c3ccccc32)-c2cc(Cl)ccc2N1"
267 to 271 °C

Continue with "O=C(CCC(=O)c1ccc(F)cc1)Nc1ccc(-n2nc(C(F)(F)F)cc2C(F)(F)F)cc1"
156 to 158 °C

// repeat for "COc1cc2c(cc1S(C)(=O)=O)CCN(C(C)=O)CC2" and report
159 to 162 °C

Can you handle "CCOC(=O)c1ncc2[nH]c3cccc(Oc4ccc(Cl)cn4)c3c2c1COC" next?
156 to 158 °C

Values compiled from a melting point compilation (Tetko et al.; mined from patent text by program, amines drawn as free bases though some values may be those of a salt).
